The measurements presented in this section are drawn from patent US9309242B2.

biological target: FGFR2 (h) (Homo sapiens); test: FGFR2 (enzymatic assay), TR-FRET; format: biochemical; settings: enzymatic assay; read-out: FGFR 2 pIC50 (converted)
Reported Metric: IC50 (nM)
Write it as a number; the unit nM goes unstated.

{"Molecule": "COc1cc(OC)c(F)c(N(Cc2ncc[nH]2)c2ccc3ncc(N4CCOCC4)nc3n2)c1", "Reported Metric": "IC50", "Assay Result": 1.55}

Input line: Quickly give me recorded IC50 for COc1cc(OC)c(F)c(N(Cc2ccn(C)n2)c2ccc3ncc(-c4cnn(C)c4)nc3n2)c1
Output line: 1.55

Input line: Quickly give me recorded IC50 for COc1cc(OC)c(F)c(N(Cc2ncc[nH]2)c2ccc3ncc(-c4cnn(C5COC5)c4)nc3n2)c1
Output line: 1.82

Input line: Quickly give me recorded IC50 for COc1cc(OC)c(F)c(N(CC2CCOC2)c2ccc3ncc(-c4cnn(C)c4)nc3n2)c1 (single isomer, unassigned) [Compound 172]
Output line: 4.47

###

target: FGFR2 (h) (Homo sapiens, UniProt P21802); assay: FGFR2 (enzymatic assay), TR-FRET; assay type: biochemical; settings: enzymatic assay; average values if tested multiple times; read-out: FGFR 2 pIC50 (converted)
Sequence (P21802 22-821): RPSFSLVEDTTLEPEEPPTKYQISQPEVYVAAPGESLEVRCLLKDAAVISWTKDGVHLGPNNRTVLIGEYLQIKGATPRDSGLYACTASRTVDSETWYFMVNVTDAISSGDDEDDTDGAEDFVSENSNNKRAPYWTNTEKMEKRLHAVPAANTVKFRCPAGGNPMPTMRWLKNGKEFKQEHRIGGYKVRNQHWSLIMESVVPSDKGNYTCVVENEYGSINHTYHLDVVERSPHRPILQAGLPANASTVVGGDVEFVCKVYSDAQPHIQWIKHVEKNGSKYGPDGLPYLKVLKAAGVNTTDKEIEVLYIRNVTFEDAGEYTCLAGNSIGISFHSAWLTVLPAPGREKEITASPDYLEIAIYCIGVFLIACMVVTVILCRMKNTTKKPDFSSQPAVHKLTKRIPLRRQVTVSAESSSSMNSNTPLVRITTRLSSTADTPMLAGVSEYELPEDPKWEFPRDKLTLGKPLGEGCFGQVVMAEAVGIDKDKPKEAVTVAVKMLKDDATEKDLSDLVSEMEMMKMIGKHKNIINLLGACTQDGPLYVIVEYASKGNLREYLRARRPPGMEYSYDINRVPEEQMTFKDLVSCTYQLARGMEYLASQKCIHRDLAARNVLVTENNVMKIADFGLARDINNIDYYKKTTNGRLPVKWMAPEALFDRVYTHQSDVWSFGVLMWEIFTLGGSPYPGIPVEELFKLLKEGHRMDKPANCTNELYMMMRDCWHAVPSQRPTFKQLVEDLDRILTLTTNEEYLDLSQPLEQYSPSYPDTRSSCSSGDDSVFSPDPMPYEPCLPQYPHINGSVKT
Structures can show the parent of a compound that is named as a salt.
Rule: IC50 below 2 nM gives Satisfied. Equal to or above 2 nM gives Not satisfied.

Recorded results for 5 compounds are shown here.
{"Compound": "COc1cc(OC)c(F)c(N(CC(O)COC(C)C)c2ccc3ncc(-c4cnn(C)c4)nc3n2)c1 (single isomer, unassigned) [Compound 78]", "Category": "Not satisfied"}
{"Compound": "COc1cc(OC)c(F)c(N(CC2CCC(=O)N2)c2ccc3ncc(-c4cnn(C)c4)nc3n2)c1 (stereo not drawn) [Compound 46]", "Category": "Not satisfied"}
{"Compound": "COc1cc(OC)c(F)c(N(CCCO)c2ccc3ncc(-c4cnn(C)c4)nc3n2)c1F (single isomer, unassigned) [Compound 16]", "Category": "Not satisfied"}
{"Compound": "COCC(O)CN(c1ccc2ncc(-c3cnn(C)c3)nc2n1)c1cc(OC)cc(OC)c1F (single isomer, unassigned) [Compound 59]", "Category": "Satisfied"}
{"Compound": "CNCCn1/c(=N/c2c(F)c(OC)cc(OC)c2F)ccc2ncc(-c3cnn(C)c3)nc21 [Compound 4]", "Category": "Not satisfied"}

Input line: Say whether its IC50 is strictly beneath 2 nM. Entry: COc1cc(OC)cc(N(Cc2ncc[nH]2)c2ccc3ncc(-c4cnn(C)c4)nc3n2)c1 [24-fumarate salt]
Output line: Satisfied

Input line: Say whether its IC50 is strictly beneath 2 nM. Entry: COc1cc(OC)c(F)c(N(CC2CCC(=O)N2)c2ccc3ncc(-c4cnn(C)c4)nc3n2)c1 (stereo not drawn) [Compound 52]
Output line: Not satisfied

Input line: Say whether its IC50 is strictly beneath 2 nM. Entry: COc1cc(OC)c(F)c(N(Cc2ccnn2C)c2ccc3ncc(-c4cnn(C)c4)nc3n2)c1 [Compound 113]
Output line: Not satisfied

Input line: Say whether its IC50 is strictly beneath 2 nM. Entry: COc1cc(OC)c(F)c(N(CCNC(C)C)c2ccc3ncc(-c4cnn(C)c4)nc3n2)c1F [Compound 5]
Output line: Not satisfied

Input line: Say whether its IC50 is strictly beneath 2 nM. Entry: COc1cc(/N=c2\ccc3ncc(-c4cnn(C)c4)nc3n2Cc2cc[nH]n2)c(F)c(OC)c1 [Compound 115]
Output line: Satisfied

Input line: Say whether its IC50 is strictly beneath 2 nM. Entry: COc1cc(OC)c(F)c(/N=c2\ccc3ncc(-c4cnn(C)c4)nc3n2CCCN2CCCC2=O)c1F [Compound 55]
Output line: Satisfied

Input line: Say whether its IC50 is strictly beneath 2 nM. Entry: COc1cc(OC)c(F)c(N(CC2CCC(=O)N2)c2ccc3ncc(-c4cnn(C)c4)nc3n2)c1F (stereo not drawn) [Compound 192]
Output line: Not satisfied

Input line: Say whether its IC50 is strictly beneath 2 nM. Entry: CNCCN(c1ccc2ncc(-c3cnn(C)c3)nc2n1)c1c(F)ccc(OC)c1Cl [Compound 69]
Output line: Not satisfied

Input line: Say whether its IC50 is strictly beneath 2 nM. Entry: COc1cc(OC)c(F)c(N(Cc2ncc[nH]2)c2ccc3ncc(-c4cnn(C)c4)nc3n2)c1 [Compound 23]
Output line: Satisfied

Input line: Say whether its IC50 is strictly beneath 2 nM. Entry: COc1cc(OC)c(F)c(/N=c2\ccc3ncc(-c4cnn(C)c4)nc3n2CCCO)c1F (single isomer, unassigned) [Compound 17]
Output line: Satisfied
